biological target: Cell division protein FtsZ (Bacillus subtilis (strain 168), UniProt P17865); assay: Inhibition of Bacillus subtilis FtsZ polymerization
Sequence (P17865 whole entry): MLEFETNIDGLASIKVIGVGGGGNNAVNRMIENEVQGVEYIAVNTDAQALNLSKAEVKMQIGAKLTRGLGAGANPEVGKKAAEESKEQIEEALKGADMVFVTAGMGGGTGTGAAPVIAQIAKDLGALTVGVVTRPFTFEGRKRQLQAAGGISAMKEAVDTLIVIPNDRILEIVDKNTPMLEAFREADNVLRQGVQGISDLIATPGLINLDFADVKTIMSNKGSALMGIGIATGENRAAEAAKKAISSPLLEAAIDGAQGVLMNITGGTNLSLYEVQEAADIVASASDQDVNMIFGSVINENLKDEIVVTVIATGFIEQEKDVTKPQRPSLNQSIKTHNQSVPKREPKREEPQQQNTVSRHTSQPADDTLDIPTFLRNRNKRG
RESULT_TYPE: IC50 (µM)
Kindly provide the numeric value in µM only, without the unit symbol.

Given item COc1cc(/C=C/C(=O)CC(=O)/C=C/c2ccc(O)c(OC)c2)ccc1O , the value recorded as its IC50 is 30
